# measurement_target: Glycoprotein VI extracellular domain (Gln21-Lys267) (Homo sapiens) (UniProt Q9HCN6)
# Sequence: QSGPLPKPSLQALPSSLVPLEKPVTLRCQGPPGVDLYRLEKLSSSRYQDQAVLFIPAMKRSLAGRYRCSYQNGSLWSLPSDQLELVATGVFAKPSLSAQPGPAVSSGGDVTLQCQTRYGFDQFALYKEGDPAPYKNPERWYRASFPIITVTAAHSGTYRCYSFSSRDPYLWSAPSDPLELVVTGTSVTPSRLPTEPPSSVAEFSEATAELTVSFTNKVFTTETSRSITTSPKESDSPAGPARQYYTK
# test_protocol: filter
# condition_details: 2'-OH G1; 2'-deoxy A6,G8,G9; 2'-F C7,C14,C15,U16,C19,U21; all others 2'-OMe; hexaethylene glycol spacer between G11 and C12; 3' idT; buffer F, 37 C

{"construct_sequence": "GGAGGACGGCGCGCCUGGCAUAAGCCUCC [RB540]", "measurement_target": "Glycoprotein VI extracellular domain (Gln21-Lys267) (Homo sapiens) (UniProt Q9HCN6)", "unit_abbreviation": "µM", "Kd": 0.015}
